We begin with a simple list: items and their reported IC50.
Molecular target: Genome polyprotein (Hepatitis C virus genotype 1b (isolate BK), UniProt P26663)
Sequence (P26663 2420-3010 limits assumed): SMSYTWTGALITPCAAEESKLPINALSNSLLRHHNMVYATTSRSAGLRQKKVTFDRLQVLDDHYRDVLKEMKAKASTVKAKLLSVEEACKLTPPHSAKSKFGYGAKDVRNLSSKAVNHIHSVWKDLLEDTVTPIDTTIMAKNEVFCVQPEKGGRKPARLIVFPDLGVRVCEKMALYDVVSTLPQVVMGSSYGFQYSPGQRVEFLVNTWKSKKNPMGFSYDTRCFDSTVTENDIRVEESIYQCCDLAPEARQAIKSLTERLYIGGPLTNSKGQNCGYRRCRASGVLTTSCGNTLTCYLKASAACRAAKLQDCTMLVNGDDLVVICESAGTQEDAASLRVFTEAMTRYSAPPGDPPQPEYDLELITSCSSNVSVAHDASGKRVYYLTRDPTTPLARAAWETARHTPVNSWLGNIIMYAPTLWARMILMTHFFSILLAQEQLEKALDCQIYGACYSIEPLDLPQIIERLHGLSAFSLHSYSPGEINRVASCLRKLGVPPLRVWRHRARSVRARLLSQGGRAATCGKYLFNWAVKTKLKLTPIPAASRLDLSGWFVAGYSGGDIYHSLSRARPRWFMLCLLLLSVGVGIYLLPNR
Test: HCV RNA-Dependent RNA Polymerase Assay (IC50)
Details: pH 7.5; 23 °C

OCCNc1ccc2c3c(cccc13)CN(c1cccc(Br)c1)C2 [benzo[de]isoquinoline, 11]
> 50 µM

# evaluate next
Param item = O=C1c2cccc3cccc(c23)C(=O)N1c1cccc(Br)c1 ; retrieve measured IC50.
> 50 µM

###

Biological target: Genome polyprotein (Hepatitis C virus genotype 2b (isolate HC-J8))
Sequence (P26661 2443-3033 limits assumed): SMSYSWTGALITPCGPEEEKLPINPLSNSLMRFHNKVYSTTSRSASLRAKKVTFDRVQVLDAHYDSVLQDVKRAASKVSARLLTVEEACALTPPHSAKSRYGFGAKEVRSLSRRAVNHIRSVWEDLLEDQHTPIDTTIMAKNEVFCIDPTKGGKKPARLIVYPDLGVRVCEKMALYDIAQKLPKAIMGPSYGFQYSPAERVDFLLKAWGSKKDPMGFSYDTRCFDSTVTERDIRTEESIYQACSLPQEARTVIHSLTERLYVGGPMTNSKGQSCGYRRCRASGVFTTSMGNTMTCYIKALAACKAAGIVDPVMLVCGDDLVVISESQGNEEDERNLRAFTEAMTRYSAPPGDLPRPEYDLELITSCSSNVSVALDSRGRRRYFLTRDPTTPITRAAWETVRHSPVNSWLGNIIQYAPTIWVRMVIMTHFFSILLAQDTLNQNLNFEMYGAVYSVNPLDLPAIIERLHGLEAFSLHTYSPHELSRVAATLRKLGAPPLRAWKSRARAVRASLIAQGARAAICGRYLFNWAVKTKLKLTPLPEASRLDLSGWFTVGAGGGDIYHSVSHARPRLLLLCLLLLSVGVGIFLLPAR
Test: HCV RNA-Dependent RNA Polymerase Assay (IC50)
pIC50: −log10 of the molar value.
In this section, each of the compounds is paired with its reported pIC50.

Reference set (5 entries):
CC(C)N(c1cc(-c2ccccc2)sc1C(=O)O)C(=O)[C@H]1CC[C@H](C)CC1
< 5.00
O=C1c2cccc3c(NCCO)ccc(c23)C(=O)N1c1cccc(F)c1
< 4.30
OCCNc1ccc2c3c(cccc13)CN(c1cccc(Br)c1)C2 [benzo[de]isoquinoline, 11]
< 4.30
O=C1c2cccc3c(NCCO)ccc(c23)C(=O)N1c1ccccc1
< 4.30
NS(=O)(=O)c1cccc(N2C(=O)c3cccc4c(NCCO)ccc(c34)C2=O)c1
< 4.30

Could you now look at the following compound, please?
Name the recorded pIC50 for O=C1c2cccc3cccc(c23)C(=O)N1c1cccc(Br)c1 .
< 4.30

This collection of values is drawn from BindingDB's records for doi:10.1021/jm900517t.
